experiment: Probe fluorescence ratio response to arachidonic acid relative to ADIFAB2
Assay type: binding
conditionSet: Table 5; Arachidonic acid
quantityName: ΔR/DRAΔ2 AA

>  <molecule>
L2P18H12: FABP probe, substitutions M18I G31V A73G vs SEQ ID NO: 2 (protein, listed as Rattus norvegicus, PEPTIDE (1)...(131) wild-type rat intestinal fatty acid binding protein) AFDGTWKVDRNENYEKFIEKMGINVVKRKLVAHDNLKLTITQEGNKFTVKESSNFRNIDVVFELGVDFAYSLGDGTELTGTWTMEGNKLVGKFKRVDNGKELIAVREISGNELIQTYTYEGVEAKRIFKKE

>  <quantityName>
ΔR/DRAΔ2 AA

>  <experimentalValue>
1.3

$$$$
